Collected literature values of Ki measured for 5-hydroxytryptamine receptor 2C (Homo sapiens, UniProt P28335).
assay-metric: Ki (nM)

compound=CC1CCN(CC[C@H]2CCCN2S(=O)(=O)c2cccc(Br)c2)CC1 assay_metric=Ki comparator== recorded_result=5010
compound=CCCc1cc(C(C)(C)C)ccc1Oc1cccc(C=NN=C(N)N)c1 assay_metric=Ki comparator== recorded_result=1190
compound=CCCc1c(COc2ccc(C=NN=C(N)N)cc2)ccc(C(=O)CC)c1O assay_metric=Ki comparator== recorded_result=257
compound="CCCN1CCOC2c3cc(C(N)=O)ccc3CCC21 (stereo unspecified)" assay_metric=Ki comparator=> recorded_result=10000
compound=CCc1c(COc2ccc(C=O)cc2)ccc(C(C)=O)c1O assay_metric=Ki comparator== recorded_result=9730
compound=Nc1c(Cl)cc(-c2nn(C3CCN(CCc4ccccc4)CC3)c(=O)o2)c2c1OCCO2 assay_metric=Ki comparator== recorded_result=4780
compound=CC(C)c1cc(-c2ccc(F)c3ccccc23)nc(N)n1 assay_metric=Ki comparator== recorded_result=468
compound=CCCc1c(COc2ccc(C=NN=C(N)N)cc2)ccc(C(C)=O)c1O assay_metric=Ki comparator== recorded_result=168
compound="CN(C)C1CCc2[nH]c3ccc(NC(=O)c4ccc(F)cc4)cc3c2C1 (stereo unspecified)" assay_metric=Ki comparator== recorded_result=3500
compound="Cc1cccc([C@H]2C[C@@H]2CN)c1 (relative stereo)" assay_metric=Ki comparator== recorded_result=268
compound=Cn1ccc2cc(NC(=O)Nc3cccnc3)ccc21 assay_metric=Ki comparator== recorded_result=501
compound=O=c1cc(O)cc2oc(-c3ccc(O)c(-c4c(O)cc(O)c5c(=O)cc(-c6ccc(O)cc6)oc45)c3)cc(O)c1-2 assay_metric=Ki comparator== recorded_result=2560
compound=Cc1nc2sccn2c(=O)c1CCN1CCC(=C(c2ccc(F)cc2)c2ccc(F)cc2)CC1 assay_metric=Ki comparator== recorded_result=0.25
compound=COc1ccc2c(c1O[C@H]1CCNC1)CCC2 assay_metric=Ki comparator== recorded_result=7.59
compound=CN(C)CCON/C(=C/C=C1C=CC(=O)C=C1)c1ccccc1F assay_metric=Ki comparator== recorded_result=1.3
compound="OC(c1ccccc1)C1CCN(CCc2ccccc2)CC1 (stereo unspecified)" assay_metric=Ki comparator== recorded_result=263
